TARGET OR TEST SYSTEM: PI3Kalpha (Homo sapiens (Human), UniProt P42336)
Sequence (P42336 whole entry, looked up): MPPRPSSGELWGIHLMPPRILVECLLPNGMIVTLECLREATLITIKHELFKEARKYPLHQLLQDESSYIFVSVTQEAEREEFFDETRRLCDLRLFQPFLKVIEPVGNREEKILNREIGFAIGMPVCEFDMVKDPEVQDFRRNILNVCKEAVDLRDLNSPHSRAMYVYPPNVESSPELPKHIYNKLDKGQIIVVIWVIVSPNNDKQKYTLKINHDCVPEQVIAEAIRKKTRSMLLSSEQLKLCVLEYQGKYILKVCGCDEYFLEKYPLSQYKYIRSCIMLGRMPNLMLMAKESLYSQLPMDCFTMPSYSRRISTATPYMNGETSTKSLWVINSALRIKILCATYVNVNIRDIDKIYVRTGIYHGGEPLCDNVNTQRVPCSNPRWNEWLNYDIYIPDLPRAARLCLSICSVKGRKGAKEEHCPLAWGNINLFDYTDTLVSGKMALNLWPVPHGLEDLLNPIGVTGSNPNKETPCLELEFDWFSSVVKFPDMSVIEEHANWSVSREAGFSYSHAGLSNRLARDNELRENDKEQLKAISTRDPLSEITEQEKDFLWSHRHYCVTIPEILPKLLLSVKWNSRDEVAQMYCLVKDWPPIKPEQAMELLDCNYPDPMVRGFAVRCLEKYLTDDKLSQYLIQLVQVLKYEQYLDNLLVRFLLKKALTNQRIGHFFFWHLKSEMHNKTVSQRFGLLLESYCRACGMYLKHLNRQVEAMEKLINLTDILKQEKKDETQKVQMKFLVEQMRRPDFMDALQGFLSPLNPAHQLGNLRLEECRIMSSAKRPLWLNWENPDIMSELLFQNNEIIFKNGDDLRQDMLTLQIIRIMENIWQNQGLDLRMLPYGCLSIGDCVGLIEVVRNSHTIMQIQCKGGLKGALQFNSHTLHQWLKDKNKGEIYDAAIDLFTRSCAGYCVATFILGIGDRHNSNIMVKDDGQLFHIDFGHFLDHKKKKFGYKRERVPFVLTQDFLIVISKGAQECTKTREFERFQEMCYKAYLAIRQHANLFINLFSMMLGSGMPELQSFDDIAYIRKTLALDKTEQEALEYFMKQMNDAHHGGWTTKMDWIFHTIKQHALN
ATTRIBUTE MEASURED: IC50
Remember to put the unit after the number in your answer.

Record excerpt, results attached:
CCc1ncnc(-c2ccc(C(=O)N3C[C@@H]4CCN(C(=O)OC(C)(C)C)[C@@H]4C3)c(F)c2)c1C#Cc1ccc(N)nc1 151 nM
Cc1ncnc(-c2ccc(C(=O)N3CCCCO3)c(Cl)c2)c1C#Cc1ccc(N)nc1 46 nM
CCc1ncnc(-c2cc(Cl)c(C(=O)N3CCC(C(C)(C)O)CC3)c(Cl)c2)c1C#Cc1ccc(N)nc1 98.1 nM
CCOC(=O)N1CCN(C(=O)c2ccc(-c3ncnc(CC)c3C#Cc3ccc(N)nc3)cc2Cl)CC1 81.7 nM
CCc1ncnc(-c2ccc(C(=O)N3CC[C@@H](N(C)C)C3)c(OC(F)(F)F)c2)c1C#Cc1ccc(N)nc1 402 nM
CCc1ncnc(-c2ccc(C(=O)N3CCC(C(C)(C)O)CC3)c(Cl)c2)c1C#Cc1ccc(NC)nc1 399 nM

Next compound, please.
# IC50 (compound: "CCc1ncnc(-c2ccc(C(=O)N3CCN(CCN(C)C)CC3)c(F)c2)c1C#Cc1ccc(N)nc1" ) is 452 nM
